- System: relapsed AML cells
- ASSAY NAME: Drug sensitivity assay, 1,536-well, 3-day culture with individual approved drugs at 10 μM, viability by alamarBlue
- Type: cell-based, human
- CONDITION SET: number of relapsed AML cases out of 18 tested with >70% cell death; 10 μM, 3-day culture
OBSERVED PROPERTY: #Cases >70% cell death
Answer as a number with no unit attached.

Known #Cases >70% cell death results, listed for orientation:
COMPOUND: CNC(=O)c1cc(Oc2ccc(NC(=O)Nc3ccc(Cl)c(C(F)(F)F)c3)c(F)c2)ccn1
ASSAY RESULT: 9

COMPOUND: C=CC(=O)N1CCC[C@@H](n2nc(-c3ccc(Oc4ccccc4)cc3)c3c(N)ncnc32)C1
ASSAY RESULT: 2

COMPOUND: CCCCCCCCOc1ccccc1C(=O)Nc1ccc(C(=O)OCC[N+](C)(CC)CC)cc1 [OTILONIUM BROMIDE]
ASSAY RESULT: 4

Input: In one line, give reported #Cases >70% cell death of the entry `C[C@H]1C[C@H]2[C@@H]3CCC4=CC(=O)C=C[C@]4(C)[C@@]3(F)[C@@H](O)C[C@]2(C)[C@@]1(O)C(=O)CO` .
Output: 1

Input: In one line, give reported #Cases >70% cell death of the entry `COc1cc2c(cc1OC)CN(CCc1ccc(NC(=O)c3cccc4c(=O)c5cccc(OC)c5[nH]c34)cc1)CC2` .
Output: 2

Input: In one line, give reported #Cases >70% cell death of the entry `C[C@@]1(C(=O)Nc2ccc(F)nc2)CCCN1c1nc(Nc2cc(C3CC3)n[nH]2)c2cccn2n1` .
Output: 1

Input: In one line, give reported #Cases >70% cell death of the entry `C[C@@H]1O[C@@H](O[C@H]2C[C@@H](O)[C@]3(CO)[C@H]4[C@H](O)C[C@]5(C)[C@@H](C6=CC(=O)OC6)CC[C@]5(O)[C@@H]4CC[C@]3(O)C2)[C@H](O)[C@H](O)[C@H]1O` .
Output: 18

###

# #Cases >70% cell death annotations
- System: relapsed AML cells
- ASSAY NAME: Drug sensitivity assay, 1,536-well, 3-day culture with individual approved drugs at 10 μM, viability by alamarBlue
- Assay type: cell-based, human
- CONDITION SET: number of relapsed AML cases out of 18 tested with >70% cell death; 10 μM, 3-day culture
Answer as a number with no unit attached.

Known #Cases >70% cell death results, listed for orientation:
SMI: COc1ccc(F)c(F)c1C(=O)c1cnc(NC2CCN(S(C)(=O)=O)CC2)nc1N
TEST SYSTEM: relapsed AML cells
#Cases >70% cell death: 18

SMI: C[C@]12CC[C@H](O)C[C@H]1CC[C@@H]1[C@@H]2C[C@@H](O)[C@]2(C)[C@@H](C3=CC(=O)OC3)CC[C@]12O
TEST SYSTEM: relapsed AML cells
#Cases >70% cell death: 18

SMI: Cc1nc2ccc(CN(C)c3ccc(C(=O)N[C@@H](CCC(=O)O)C(=O)O)s3)cc2c(=O)[nH]1
TEST SYSTEM: relapsed AML cells
#Cases >70% cell death: 3

// moving on: another record for #Cases >70% cell death
Input: In one line, give reported #Cases >70% cell death of the entry `COCc1c(C(C)C)nc(C(C)C)c(/C=C/[C@@H](O)C[C@@H](O)CC(=O)O)c1-c1ccc(F)cc1` .
Output: 17

###

- Tested on: relapsed AML cells
- ASSAY NAME: Drug sensitivity assay, 1,536-well, 3-day culture with individual approved drugs at 10 μM, viability by alamarBlue
- Type: cell-based, human
- CONDITION SET: number of relapsed AML cases out of 18 tested with >70% cell death; 10 μM, 3-day culture
- Procedure: Drug sensitivity assays were performed using a 1,536-well platform where all cells and reagents were deposited in wells using an acoustic liquid handling unit that is highly accurate for dispensing of nanoliter volumes of liquid. […] After dispensing the cells into the wells, an independent drug at a known concentration is added to each well and incubated with the cells. After three days, the percentage of live cells in each well is determined to assess the killing efficiency of each compound. […]
# #Cases >70% cell death annotations
Answer as a number with no unit attached.

Known #Cases >70% cell death results, listed for orientation:
MOLECULE: CN(C)c1ccc2nc3ccc(=[N+](C)C)cc-3sc2c1 [METHYLENE BLUE]
#Cases >70% cell death: 18
//
MOLECULE: OC1(c2ccc(Cl)c(C(F)(F)F)c2)CCN(CCCC(c2ccc(F)cc2)c2ccc(F)cc2)CC1 [PENFLURIDOL]
#Cases >70% cell death: 14

// moving on: another record for #Cases >70% cell death
Input: In one line, give reported #Cases >70% cell death of the entry Nc1c2ccccc2nc2ccccc12 [AMINACRINE] .
Output: 18

###

- Test system: relapsed AML cells
- ASSAY NAME: Drug sensitivity assay, 1,536-well, 3-day culture with individual approved drugs at 10 μM, viability by alamarBlue
- Type: cell-based, human
- CONDITION SET: number of relapsed AML cases out of 18 tested with >70% cell death; 10 μM, 3-day culture
OBSERVED PROPERTY: #Cases >70% cell death
Answer as a number with no unit attached.

Known #Cases >70% cell death results, listed for orientation:
COMPOUND: Clc1ccc(C(Cn2ccnc2)OCc2ccsc2Cl)c(Cl)c1 (stereo not shown)
ASSAY RESULT: 1
--
COMPOUND: O=C(/C=C/c1cccc(S(=O)(=O)Nc2ccccc2)c1)NO
ASSAY RESULT: 1
--
COMPOUND: C[C@@H]1CCCN1CCc1cc2cc(-c3ccc(C#N)cc3)ccc2o1
ASSAY RESULT: 1
--
COMPOUND: CC(C)OC(=O)CCC/C=C\C[C@@H]1[C@@H](CC[C@@H](O)CCc2ccccc2)[C@H](O)C[C@@H]1O
ASSAY RESULT: 1

Input: In one line, give reported #Cases >70% cell death of the entry `CC[C@H](C)C(=O)O[C@H]1C[C@H](O)C=C2C=C[C@H](C)[C@H](CC[C@@H](O)C[C@@H](O)CC(=O)O)[C@H]21` .
Output: 1

Input: In one line, give reported #Cases >70% cell death of the entry C[C@H]1[C@H](OC(=O)CCC(=O)O)O[C@@H]2O[C@@]3(C)CC[C@H]4[C@H](C)CC[C@@H]1[C@@]24OO3 [ARTESUNATE] .
Output: 5

Input: In one line, give reported #Cases >70% cell death of the entry CCCCCCCCCCCCCCCC[N+](C)(C)CCN(Cc1ccc(OC)cc1)c1ncccn1 [THONZONIUM BROMIDE] .
Output: 18

Input: In one line, give reported #Cases >70% cell death of the entry Cc1cc(C(C)(C)CC(C)(C)C)ccc1OCCOCC[N+](C)(C)Cc1ccccc1.[Cl-] [METHYLBENZETHONIUM CHLORIDE] .
Output: 16

Input: In one line, give reported #Cases >70% cell death of the entry Clc1ccc(CSC(Cn2ccnc2)c2ccc(Cl)cc2Cl)cc1 (stereo not shown) [SULCONAZOLE NITRATE] .
Output: 5

###

# #Cases >70% cell death annotations
- Test system: relapsed AML cells
- ASSAY NAME: Drug sensitivity assay, 1,536-well, 3-day culture with individual approved drugs at 10 μM, viability by alamarBlue
- Type: cell-based, human
- CONDITION SET: number of relapsed AML cases out of 18 tested with >70% cell death; 10 μM, 3-day culture
Where a name gives a salt, the structure may show the parent alone.
Answer as a number with no unit attached.

Known #Cases >70% cell death results, listed for orientation:
MOLECULE: COc1cc(C(=O)NCc2ccc(OCCN(C)C)cc2)cc(OC)c1OC [TRIMETHOBENZAMIDE HYDROCHLORIDE]
ASSAY RESULT: 1
//
MOLECULE: C[n+]1c2cc(N)ccc2cc2ccc(N)cc21.[Cl-] [ACRIFLAVINIUM HYDROCHLORIDE]
ASSAY RESULT: 5

Input: In one line, give reported #Cases >70% cell death of the entry CCC(=O)OCC(=O)[C@@]1(OC(=O)CC)[C@@H](C)C[C@H]2[C@@H]3CCC4=CC(=O)C=C[C@]4(C)[C@@]3(Cl)[C@@H](O)C[C@@]21C [BECLOMETHASONE DIPROPIONATE] .
Output: 1

Input: In one line, give reported #Cases >70% cell death of the entry C#Cc1cccc(Nc2ncnc3cc(OCCOC)c(OCCOC)cc23)c1 [ERLOTINIB] .
Output: 6

Input: In one line, give reported #Cases >70% cell death of the entry CC(C)OC(=O)C(C)(C)Oc1ccc(C(=O)c2ccc(Cl)cc2)cc1 [FENOFIBRATE] .
Output: 3

###

# pIC50 annotations
- System: AML patient samples
- ASSAY NAME: 10-point dose-response drug screen of statins against AML patient samples, 3-day drug sensitivity assay
- Format: cell-based, human
- CONDITION SET: Homo sapiens, 72 h; patient sample AML 285; 3-day assay; read-out: IC50 AML 285
pIC50 is defined as minus the log10 of a concentration measured in mol/L.

COMPOUND: CC(C)n1c(/C=C/C(O)CC(O)CC(=O)O)c(-c2ccc(F)cc2)c2ccccc21 (stereo not shown)
OBSERVED PROPERTY: pIC50
ASSAY RESULT: 6.37

Input: In one line, give reported pIC50 of the entry `CC[C@H](C)C(=O)O[C@H]1C[C@@H](C)C=C2C=C[C@H](C)[C@H](CC[C@@H]3C[C@@H](O)CC(=O)O3)[C@H]21` .
Output: 5.42
